experiment: small-molecule microarray binders of probe aNog, primary screen, biochemical, biotinylated probe, 635/667 nm fluorescence (AID 1115); conditions: higher = more signal;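 further: probe is biotinylated aNog protein used at 0.15 µg/mL for 1 h at 4 C; z-score combines 667 nm fluorescence of each spot with its signal to noise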
METRIC: composite z-score
Returns: the value as a bare number; no unit string appended.

Example entries and their recorded answers appear below.
MOLECULE: COCCOC(=O)N1C(=O)[C@@]2(c3cc(C#CC4(O)CCCCCC4)ccc31)[C@H](C(=O)N1CCc3cc(OC)c(OC)cc3C1)[C@H]1C(=O)O[C@H](c3ccccc3)[C@H](c3ccccc3)N1[C@@H]2c1ccc(O)cc1
composite z-score: -0.411
--
MOLECULE: CC(C)CNC(=O)[C@@H]1c2ccccc2C(=O)N(C2Cc3ccccc3C2)[C@H]1c1ccc(CO)cc1
composite z-score: 0.325

So for CCC[C@@H]1[C@@H](Sc2ccccc2)[C@@H](C(=O)O)[C@H](c2ccc(C)cc2)N1S(=O)(=O)c1ccc(C)cc1 , the logged composite z-score turned out to be -0.0987

So for CC(C)C[C@H]1NC(=O)[C@H](Cc2ccccc2)NC(=O)[C@@]23C(=O)N[C@@H](Cc4ccccc4)C2[C@H](C)[C@@]2(C)O[C@H]2C3/C=C/C/C=C\CNC1=O (stereo not given in full) , the logged composite z-score turned out to be 0.3

So for COC(=O)C(CC#Cc1ccc2c(c1)[C@]1(C(=O)N2)[C@H](c2ccc(O)cc2)N2[C@H](c3ccccc3)[C@H](c3ccccc3)OC(=O)[C@H]2[C@@H]1C(=O)N1CCc2cc(OC)c(OC)cc2C1)C(=O)OC , the logged composite z-score turned out to be -0.23

* * *

experiment: MM1S myeloma cell viability, profiling panel, resazurin fluorescence, basal, 24 h, PK04 Diversity Set (AID 1174); conditions: higher = more signal, called active from +8 up or from −8 down;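 further: MM1S multiple myeloma cell line; test concentration not given here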
Just so you know, the groups by z-score go like this: low: < -0.7; middle: ≥ -0.7 and < -0.2; high: ≥ -0.2

Recorded results for 10 compounds are shown here.
COMPOUND: COc1ccc(CC[C@H](O)c2cccc(OCC(=O)OC(C)(C)C)c2)cc1
ANSWER LABEL: middle
--
COMPOUND: COC(=O)c1c(CC[C@@H](CO)NC(=O)N[C@@H](Cc2ccccc2)Cn2cc(-c3cncn3C)nn2)oc(C(C)=O)c1C(=O)OC
ANSWER LABEL: high
--
COMPOUND: CN(C)CCCCNC(=O)[C@H]1C[C@H]2C(=O)N[C@@H](Cc3ccccc3)C(=O)N2[C@H]1c1cccc(OCCO)c1
ANSWER LABEL: high
--
COMPOUND: COc1cccc(C[C@H]2C[C@@H](CO[Si](C(C)C)(C(C)C)C(C)C)N3C(=O)[C@@]4(C(C)=O)O[C@@]23[C@@H]2C(=O)N(C)C(=O)[C@@H]24)c1
ANSWER LABEL: middle
--
COMPOUND: [N-]=[N+]=NCc1ccccc1C[C@]1(C(=O)NCc2ccccc2)N=C(c2ccc(OCCCO)cc2)O[C@H]1c1ccccc1CN=[N+]=[N-]
ANSWER LABEL: high
--
COMPOUND: CN(C)CCCC[C@@H]1NC(=O)[C@@H]2C[C@H](C(=O)NCc3ccc(F)cc3)[C@H](c3ccc(O)cc3)N2C1=O
ANSWER LABEL: high
--
COMPOUND: C=CCNC(=O)[C@H]1[C@@H]2C(=O)O[C@@H](c3ccccc3)[C@@H](c3ccccc3)N2[C@@H](c2ccccc2OCCO)[C@]12C(=O)N(C(=O)OCCOC)c1ccccc12
ANSWER LABEL: low
--
COMPOUND: COC(=O)[C@@]1(Cc2ccc(F)cc2)[C@H]2c3cc(C(=O)N(C)C)n(CCO)c3C[C@H]2CN1C(=O)c1ccccc1
ANSWER LABEL: middle
--
COMPOUND: [N-]=[N+]=NCc1ccccc1[C@H]1OC(c2ccc(OCCCO)cc2)=N[C@@]1(Cc1ccccc1)C(=O)N1CCOCC1
ANSWER LABEL: high
--
COMPOUND: COCCOC(=O)N1C(=O)[C@@]2(c3cc(C#CCC(C(=O)OC)C(=O)OC)ccc31)[C@H](C(=O)N1CCc3cc(OC)c(OC)cc3C1)[C@H]1C(=O)O[C@H](c3ccccc3)[C@H](c3ccccc3)N1[C@@H]2c1ccc(O)cc1
ANSWER LABEL: high

# ---- query compound ----
Could you tell me which band CC(C)C[C@H]1NC(=O)[C@@]23C(=O)N[C@@H](Cc4ccccc4)C2[C@H](C)[C@@]2(C)O[C@H]2C3/C=C/C/C=C\CNC(=O)[C@@H]2CCCN2C1=O (stereo not given in full) belongs to?
high
